- System: E. coli TESEC Mtb Alr
- assayProtocol: growth (OD600 after 10 h); higher = more growth (less inhibition)
- assaySetup: arabinose 1000 nM; compound 0.1 mM; raw OD600 reference: median of DMSO wells 0.294, cell-free background 0.041
Where a name gives a salt, the structure may show the parent alone.
measuredEndpoint: growth
Number, no unit, nothing else.

Study these solved cases before continuing.
>>> recordedvalue("O=C(O)Cc1ccccc1Nc1c(Cl)cccc1Cl [Diclofenac sodium]")
0.137
>>> recordedvalue("C[C@@](Cc1ccc(O)c(O)c1)(NN)C(=O)O")
0.292
>>> recordedvalue("C=Cc1c(C)c2cc3nc(cc4[nH]c(cc5nc(cc1[nH]2)C(C)=C5CCC(=O)O)c(CCC(=O)OC)c4C)[C@@]1(C)C3=CC=C(C(=O)OC)C1C(=O)OC.C=Cc1c(C)c2cc3nc(cc4[nH]c(cc5nc(cc1[nH]2)C(C)=C5CCC(=O)OC)c(CCC(=O)O)c4C)[C@@]1(C)C3=CC=C(C(=O)OC)C1C(=O)OC (stereo partly specified)")
0.356
>>> recordedvalue("NC(=O)N/N=C/c1ccc([N+](=O)[O-])o1")
0.0426

Input C=CC1=C(C(=O)O)N2C(=O)[C@@H](NC(=O)/C(=N\O)c3csc(N)n3)[C@H]2SC1 , output reported growth.
0.0401

Name the recorded growth of the item O=C1NCC2(CCN(CCc3ccccc3)CC2)O1 [Fenspiride hydrochloride] in your answer.
0.288

Recall and state the measured growth for Nc1ccc(S(=O)(=O)Nc2nccs2)cc1 .
0.275

Specify growth for CC(=O)OCC(=O)[C@@]1(O)CC[C@H]2[C@@H]3CCC4=CC(=O)CC[C@]4(C)[C@@]3(F)[C@@H](O)C[C@@]21C [Fludrocortisone acetate] and stop.
0.235

Give growth for the following molecule: Cc1c(O)c(=O)n(-c2ccccc2)n1C [Antipyrine, 4-hydroxy]
0.289

Specify growth for Cc1cccc(N(C)C(=S)Oc2ccc3ccccc3c2)c1 [Tolnaftate] and stop.
0.272

Read off the recorded growth for CC(C)[N+](C)(CCOC(=O)C1c2ccccc2Oc2ccccc21)C(C)C [Propantheline bromide]
0.231

Please report growth for the following molecule: CNCCC=C1c2ccccc2C=Cc2ccccc21
0.194

Check the records and state growth for CN1CCCN=C1/C=C/c1cccs1 [Pyrantel tartrate]
0.278

Look up and state reported growth for COc1cc(C(=O)NS(=O)(=O)c2ccccc2C)ccc1Cc1cn(C)c2ccc(NC(=O)OC3CCCC3)cc12
0.0976

In one line, give reported growth of the entry NC1CCN(c2c(F)cc3c(=O)c(C(=O)O)cn(C4CC4)c3c2Cl)C1 (stereo unspecified) .
0.0399

Answer with the recorded growth for the molecule listed here: O=C(O)COCCN1CCN(C(c2ccccc2)c2ccc(Cl)cc2)CC1 (stereo unspecified) [Cetirizine dihydrochloride]
0.275

====

- Test system: E. coli TESEC Mtb Asd
- assayProtocol: growth (OD600 after 10 h); higher = more growth (less inhibition)
- assaySetup: arabinose induction (level): Low; compound 0.1 mM; raw OD600 reference: median of DMSO wells 0.417, cell-free background 0.041
Where a name gives a salt, the structure may show the parent alone.
Catalogue of compounds with associated growth
Give only the figure.

Some solved entries appear below for comparison.
>>> recordedvalue("CSc1ccc2c(c1)N(CCC1CCCCN1C)c1ccccc1S2 (centres undefined) [Thioridazine hydrochloride]")
0.0523
>>> recordedvalue("CN(N=O)C(=O)N[C@H]1C(O)O[C@H](CO)[C@@H](O)[C@@H]1O (mixture of isomers)")
0.305
>>> recordedvalue("CN(CCOc1ccc(CC2SC(=O)NC2=O)cc1)c1ccccn1 (centres undefined) [Rosiglitazone Hydrochloride]")
0.19
>>> recordedvalue("CCCc1cc(C(N)=S)ccn1 [Prothionamide]")
0.388
>>> recordedvalue("CCOC(=O)[C@H](CCc1ccccc1)N[C@H]1CCc2ccccc2N(CC(=O)O)C1=O [Benazepril HCl]")
0.36

Please list growth recorded for the compound CCC1(c2ccccc2)C(=O)NCNC1=O
0.463

Let me know recorded growth for C#CCN(C)Cc1ccccc1 [Pargyline hydrochloride] , thanks.
0.429

Kindly indicate its recorded growth. Item: CC(COc1ccccc1)N(CCCl)Cc1ccccc1 (centres undefined) [Phenoxybenzamine hydrochloride]
0.261

Please indicate growth recorded for CC(CCc1ccc(O)cc1)NCCc1ccc(O)c(O)c1 (centres undefined) [Dobutamine hydrochloride]
0.165
